# Tested on: Reovirus sp.
# experiment: Antiviral activity against Reovirus-1
# Assay type: functional, organism-based
Active and inactive are the calls of the source. The calls are words filed in the database; no cut-off is given here.
recorded-metric: Activity

See these solved cases before continuing.
C=C(C)[C@@H]1CC[C@]2(C(=O)O)CC[C@]3(C)[C@H](CC[C@@H]4[C@@]5(C)Cc6nnn(Cc7ccc8c(c7)OCO8)c6C(C)(C)[C@@H]5CC[C@]43C)[C@@H]12; inactive
C=C(C)[C@@H]1CC[C@]2(C(=O)O)CC[C@]3(C)[C@H](CC[C@@H]4[C@@]5(C)Cc6nnn(Cc7ccc(N(C)C)cc7)c6C(C)(C)[C@@H]5CC[C@]43C)[C@@H]12; inactive
C=C(C)[C@@H]1CC[C@]2(C(=O)O)CC[C@]3(C)[C@H](CC[C@@H]4[C@@]5(C)Cc6nnn(CCc7c[nH]c8ccccc78)c6C(C)(C)[C@@H]5CC[C@]43C)[C@@H]12; inactive
C=C(C)[C@@H]1CC[C@]2(C(=O)O)CC[C@]3(C)[C@H](CC[C@@H]4[C@@]5(C)Cc6nnn([C@@H](C)c7ccccc7)c6C(C)(C)[C@@H]5CC[C@]43C)[C@@H]12; inactive
C=C(C)[C@@H]1CC[C@]2(C(=O)O)CC[C@]3(C)[C@H](CC[C@@H]4[C@@]5(C)Cc6nnn(CCCCCCC)c6C(C)(C)[C@@H]5CC[C@]43C)[C@@H]12; inactive
C=C(C)[C@@H]1CC[C@]2(C(=O)O)CC[C@]3(C)[C@H](CC[C@@H]4[C@@]5(C)Cc6nnn(CC7CCCCC7)c6C(C)(C)[C@@H]5CC[C@]43C)[C@@H]12; inactive
C=C(C)[C@@H]1CC[C@]2(C(=O)O)CC[C@]3(C)[C@H](CC[C@@H]4[C@@]5(C)Cc6nnn(CCc7c[nH]c8ccc(OC)cc78)c6C(C)(C)[C@@H]5CC[C@]43C)[C@@H]12; inactive
C=C(C)[C@@H]1CC[C@]2(C(=O)O)CC[C@]3(C)[C@H](CC[C@@H]4[C@@]5(C)Cc6nnn(CCO)c6C(C)(C)[C@@H]5CC[C@]43C)[C@@H]12; inactive

Prompt: # query: Activity of entry `C=C(C)[C@@H]1CC[C@]2(C(=O)O)CC[C@]3(C)[C@H](CC[C@@H]4[C@@]5(C)Cc6nn[nH]c6C(C)(C)[C@@H]5CC[C@]43C)[C@@H]12`
Response: inactive

Prompt: Try the compound `C=C(C)[C@@H]1CC[C@]2(C(=O)O)CC[C@]3(C)[C@H](CC[C@@H]4[C@@]5(C)Cc6nnn(Cc7ccc(F)cc7)c6C(C)(C)[C@@H]5CC[C@]43C)[C@@H]12`
Response: inactive

Prompt: Consider next the compound `C=C(C)[C@@H]1CC[C@]2(C(=O)O)CC[C@]3(C)[C@H](CC[C@@H]4[C@@]5(C)Cc6nnn([C@H](C)c7ccccc7)c6C(C)(C)[C@@H]5CC[C@]43C)[C@@H]12` in the same way.
Response: inactive

Prompt: Quick one: `C=C(C)[C@@H]1CC[C@]2(C(=O)O)CC[C@]3(C)[C@H](CC[C@@H]4[C@@]5(C)Cc6nnn(Cc7ccco7)c6C(C)(C)[C@@H]5CC[C@]43C)[C@@H]12`
Response: inactive

Prompt: Try `CC(C)[C@@H]1CC[C@]2(C(=O)O)CC[C@]3(C)[C@H](CC[C@@H]4[C@@]5(C)Cc6nnn([C@@H](C)c7ccccc7)c6C(C)(C)[C@@H]5CC[C@]43C)[C@@H]12` next.
Response: inactive
